B1: Protein PIGBOS1 (Homo sapiens), A0A0B4J2F0 (parent)
chain: MFRRLTFAQLLFATVLGIAGGVYIFQPVFEQYAKDQKELKEKMQLVQESEEKKS
partner: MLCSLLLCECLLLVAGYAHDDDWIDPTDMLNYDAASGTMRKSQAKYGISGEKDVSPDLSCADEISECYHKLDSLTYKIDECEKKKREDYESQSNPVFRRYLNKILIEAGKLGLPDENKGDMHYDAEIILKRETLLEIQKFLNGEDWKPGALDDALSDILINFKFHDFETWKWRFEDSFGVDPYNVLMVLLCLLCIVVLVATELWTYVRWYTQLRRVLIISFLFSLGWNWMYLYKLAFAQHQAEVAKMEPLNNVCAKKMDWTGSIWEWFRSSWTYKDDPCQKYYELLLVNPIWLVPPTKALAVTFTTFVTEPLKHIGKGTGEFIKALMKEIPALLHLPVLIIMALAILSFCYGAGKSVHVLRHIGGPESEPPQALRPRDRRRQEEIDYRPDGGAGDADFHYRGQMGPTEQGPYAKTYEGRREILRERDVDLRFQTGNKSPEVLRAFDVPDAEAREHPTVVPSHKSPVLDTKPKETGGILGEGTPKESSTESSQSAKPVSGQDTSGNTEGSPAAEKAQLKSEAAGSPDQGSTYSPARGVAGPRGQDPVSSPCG

# Variants of: B1
# condition_info: with clcc1_human CLCC1, Q96S66
measured_attribute: effect of a mutation on the interaction

[[record]]
mutation_spec = "S49A;E50A;E51A"
value_reported = "with no effect"

[[record]]
mutation_spec = "K37A;E38A;L39A"
value_reported = "with no effect"

[[record]]
mutation_spec = "K52A;K53A;S54A"
value_reported = "with no effect"

[[record]]
mutation_spec = "V46A;Q47A;E48A"
value_reported = "with no effect"

[[record]]
mutation_spec = "M43A;Q44A;L45A"
value_reported = "with no effect"

[[record]]
mutation_spec = "K40A;E41A;K42A"
value_reported = "with no effect"

